The origin of these recorded values is the supplement of paper PMC9170038.

# System: MS2 coat protein
# experiment_notes: apparent KD of MS2 coat protein; designed switch direction (-1 OFF switch, 1 ON switch): -1; higher = weaker reporter binding
# condition_label: Eterna round: R95; input ligand: microRNA oligo, concentration not stated
Provide the reported apparent KD of MS2 coat protein of each item.
Answer with the number, then the unit.

Worked examples follow.
{"columns": ["residue_codes", "apparent KD of MS2 coat protein"],
 "data": [
  ["UUGUUUUUUGAGGAUAUGCGACGUUUUUUCGUCGUAGAAGGCGAUACAUGAGGAUCACCCAUGUUUAUGGGCAU [LRO-Ex6-14] (puzzle: Exclusion 6)", "0.122 µM"],
  ["UGCUAGUCAGGAUAUACGAACAUGUCAAAAGACGUGAAGGGACAUGAGGAUCACCCAUGUAGAAGGGACUAGCU [salish99_ex2_r3_006] (puzzle: Exclusion 2)", "0.0252 µM"]
]}

Fill in apparent KD of MS2 coat protein for each of the 5 sequences listed.
1. UUUUAACAUGAGGAUCACCCAUGUGAGGAUAUCGAAAUUUAUAUUUAUAUUAAUUAAACGAGAAGGCACAUUUU [JMF 83] (puzzle: Exclusion 1)
2. UUUUUGUCAGGAUAUACGUAGUAGAACAAUAGUACUACUACGUAGAAGGGACAUGAGGAUCACCCAUGUUCCUC [Fiskers Ex 4 Super stable 44 mod 16] (puzzle: Exclusion 4)
3. GAGUGACAUGAGGAUCACCCAUGUAAGGAUAUACGGUUGGUAGAGAGAGGGCGAAAGGGUAGAAGGUACGAAGG [JR_Exclu1_Sub054] (puzzle: Exclusion 1)
4. GAUUAUGCGAGCUUUAGGGACAUGAGGAUCACCCAUGUUCGUCUUAUUAGUCUGAGUGCACUGACAUACCUAAAUCU [JMF 85] (puzzle: Sensor v3, turn-off variant 1)
5. CCAUCGUGUGUGAGGAUAUGCUGGACCUUGGUUCAGCAGAAGGCACAUGAGGAUCACCCAUGUGAAUACGGUGG [Mat - Exclusion 4 - JL Mod - D90] (puzzle: Brourd's mod of Exclusion 4)

Result block:
1: 0.074 µM; 2: 0.016 µM; 3: 0.076 µM; 4: 0.022 µM; 5: 0.0161 µM

Fill in apparent KD of MS2 coat protein for each of the 2 sequences listed.
1. GGUCCACAUGAGGAUCACCCAUGUUAGGAUAUCUCCUGCCUCCUAAAUGGAAGCAGACAGAGAAGGAACAUCAA [Soanatra] (puzzle: Exclusion 1)
2. AAGUACCGUCACGAUAGUGAUGGUACAACAAGCAGGUGAACAUGAGGAUCACCCAUGUCCUCAAUUGCUCGUCUUAU [Sensor 3 - 73] (puzzle: Sensor v3, turn-off variant 2)

Result block:
["0.0245 µM", "0.0483 µM"]

Fill in apparent KD of MS2 coat protein for each of the 3 sequences listed.
1. GGGCGUGAAGGAUAUACAUGAGGAUCACCCAUGUGGGAGGAGAGUGGUGAGGAGGCUGGUAGAAGGUCAGGAGG [JR_Exclusion3_Sub008] (puzzle: Exclusion 3)
2. CGUGUCUUUUACGUGAGUGGUGGGUGCAACAGGUGGGUUACAUGAGGAUCACCCAUGUGCUCACUUGCUCGUCUUUU [Grok-var2-09] (puzzle: Sensor v3, turn-off variant 2)
3. AGUACUAACACGAAAGUGUUAGUACAAUAAGCUUGUGUUACAUGAGGAUCACCCAUGUCCUCAUAAGCUCGUCUUAG [Mat - Sensor v3 - Turn-off var 2 - D50] (puzzle: Sensor v3, turn-off variant 2)

Result block:
1. 0.0277 µM
2. 0.0393 µM
3. 0.351 µM

Fill in apparent KD of MS2 coat protein for each of the 3 sequences listed.
1. ACAAGCUUUUUGCUCGGGUACAUGAGGAUCACCCAUGUUUGGGUUUAUUGAGGUUGUGUUGUCGUGCGCUGCAGGUU [JR_SV3TOV1_Sub076] (puzzle: Sensor v3, turn-off variant 1)
2. UUUUUGUGAGGAUAUCAGUAGUAGAACAAUAGUACUACUACUGAGAAGGUACAUGAGGAUCACCCAUGUUCCUC [Fiskers Ex 4 Super stable 44 mod 13] (puzzle: Exclusion 4)
3. CAAAAGGUAGGAUAUACGAAAAAAAAGGGUAGAAAAAAAACACAUGAGGAUCACCCAUGUAGAAGGACCAAAAU [salish99_ex2_r3_054] (puzzle: Exclusion 2)

Result block:
["0.416 µM", "0.0195 µM", "0.0243 µM"]

Fill in apparent KD of MS2 coat protein for each of the 4 sequences listed.
1. CCAUGUUAGCAGGAUAUGCAAUUAUUCUUUUAAGCAGAAGGGCUUACAUGAGGAUCACCCAUGUAACAUUUCAU [JR_E6_Sub081] (puzzle: Exclusion 6)
2. AGUACUAACACGUCGGUGUUAGUACAAUAAGCUUGUGAAACAUGAGGAUCACCCAUGUCCUCAUAAGCUCGUCUUAU [salish99_TOv2_r3_080] (puzzle: Sensor v3, turn-off variant 2)
3. CUGAGGUAGCGGUCCUAUGACAUGAGGAUCACCCAUGUACCUUGCUUUGAGCUUUUAGCUCGUCUUAUGAUUCUCGG [Mat - Sensor v3 - turn-off var 1 - JL Mod - D43] (puzzle: Sensor v3, turn-off variant 1)
4. UUUUUCGAACAAGCUACGUACAUGAGGAUCACCCAUGUUGGUAGAUUUGAGUAGGUUUGGAUGGAAGCUCGUCUUAU [JR_SV3TOV1_Sub083] (puzzle: Sensor v3, turn-off variant 1)

Result block:
1: 0.0173 µM; 2: 0.575 µM; 3: 0.235 µM; 4: 0.0445 µM

Query block: Supply measured apparent KD of MS2 coat protein of GUUACACAUGAGGAUCACCCAUGUAAGGAUAUGCUGCGGUCGCGCUGACGUGACUGCAGCAGAAGGUACAAAUG [Mat - Mod of JL D56] (puzzle: Exclusion 1) in your reply.
Result block: 0.0593 µM

====

Provide the reported apparent KD of MS2 coat protein of each item.
# System: MS2 coat protein
# experiment_notes: apparent KD of MS2 coat protein; designed switch direction (-1 OFF switch, 1 ON switch): -1; higher = weaker reporter binding
# condition_label: Eterna round: R95; input ligand: FMN 200 uM
Numbers only, in nM.

{"columns": ["residue_codes", "scale_unit", "apparent KD of MS2 coat protein"],
 "data": [
  ["GGUCGGCGAGGAUAUACAUGAGGAUCACCCAUGUGAUAUAGUGCACGCGUACGUGUACGUAGAAGGCGCUGACG [JL-ex3-3.26 salish99 mod] (puzzle: Exclusion 3)", "nM", 39.6],
  ["GAUGUGGGUUUCCGGAGUAACAUGAGGAUCACCCAUGUAGAAGUUGGAGGGAUCAAGCUUUUUGGUCGUCACACGUG [JR_SV3TOV1_Sub053] (puzzle: Sensor v3, turn-off variant 1)", "nM", 213],
  ["AAUUACAAGCAAAGAUCCUACAUGAGGAUCACCCAUGUGCUCGUCUUAUAAAGUACUAUCACGAAAGUGAUAGUACA [Mat - Sensor v3 - turn-off var 1 - Eli Mod - D76] (puzzle: Sensor v3, turn-off variant 1)", "nM", 222],
  ["ACCUCACAUGAGGAUCACCCAUGUCAGGAUAUACAAGAAAAUAACCGGAAAGAACGGAGUAGAAGGGACAUAAG [Zatigeri] (puzzle: Exclusion 1)", "nM", 28.1],
  ["AAGAAACAUGAGGAUCACCCAUGUGAGGAUAUGAAAAAGAAAAGAAAAGAAAGAAGACUCAGAAGGCACAAAGG [salish99-ex1_r3_022] (puzzle: Exclusion 1)", "nM", 33.3],
  ["AAAUGUUCGGAGGAUAUAGAACGAUUGUCCGAGCUAGAAGGCCGAACAUGAGGAUCACCCAUGUGUACCUUAAA [Tibiares] (puzzle: Exclusion 6)", "nM", 306],
  ["UUUUUAUUUUUUUAUUUUGACAUGAGGAUCACCCAUGUCACGAGCAGAUCUUCAUGCAAGCUUUUUGCUCGUCUUAU [Sensor v3 - Turn-off variant 1 - 40] (puzzle: Sensor v3, turn-off variant 1)", "nM", 58.3],
  ["CUCGGGAGUCAGGAUAUCGGCACAUAUCAAUCACGAGAAGGGACGACAUGAGGAUCACCCAUGUGGGAAAAGAA [Bivetilaza] (puzzle: Exclusion 6)", "nM", 92.9]
]}

Fill in apparent KD of MS2 coat protein for each of the 2 sequences listed.
1. AAAAAACAUGAGGAUCACCCAUGUCAGGAUAUCCGAAAAGAAAAGAAAAAGAAAAAAGGGAGAAGGGACAAAAA [April's ex-date #2] (puzzle: Exclusion 1)
2. UUACAAUGUCACUUACAAGCUUUUUGCUCGUCUUAUAUUACAUGAGGAUCACCCAUGUAGAUCAUGUGGCGUGACCU [JL ViennaUCT Maridi mod 10] (puzzle: Sensor v3, turn-off variant 2)

Result block:
1. 50.5
2. 145
